Data credit: paper PMC6844382

- PROCEDURE_SUMMARY: in vitro
- APPLIED_CONDITIONS: PAMPA
One threshold, 9 ×10⁻⁶ cm/s, splits the recorded Papp at 18 h, 25 μg/mL values: lower ones are 1.0, equal or higher ones are 0.0.

Does `CC1CCN(C(=S)SCCCCOc2ccc3ccc(=O)[nH]c3c2)CC1` have Papp at 18 h, 25 μg/mL strictly under 9 ×10⁻⁶ cm/s?
1.0

What do you get for `O=c1ccc2ccc(OCCCCSC(=S)N3CCC(N4CCCCC4)CC3)cc2[nH]1` ?
1.0

What do you get for `Cc1c(C)c2ccc(OCCCCSC(=S)N3CCCCC3)cc2[nH]c1=O` ?
1.0

What do you get for `CC(C)C1CCN(C(=S)SCCCCOc2ccc3ccc(=O)[nH]c3c2)CC1` ?
1.0

What do you get for `O=c1ccc2ccc(OCCCCCCSC(=S)N3CCCCC3)cc2[nH]1` ?
0.0

What do you get for `O=c1ccc2ccc(OCCCCSC(=S)N3CCC(CO)CC3)cc2[nH]1` ?
1.0

What do you get for CC(=O)[C@H]1CC[C@H]2[C@@H]3CCC4=CC(=O)CC[C@]4(C)[C@H]3CC[C@]12C [Progesterone, reference compound] ?
0.0

What do you get for `O=c1ccc2ccc(OCCCCSC(=S)N3CCCC3)cc2[nH]1` ?
0.0

What do you get for `O=c1ccc2ccc(OCCCCSC(=S)N3CCC(O)CC3)cc2[nH]1` ?
1.0

What do you get for `O=c1ccc2ccc(OCCSC(=S)N3CCCCC3)cc2[nH]1` ?
1.0

---

Would you mind telling me the reported inhibition at 10 µM of each entry?
- SYSTEM: eqBuChE (Equus caballus)
- Construct: eqBuChE (from equine serum); purchased Sigma-Aldrich (St. Louis, MO, USA); host or cells: equine serum
- Sequence (P81908 whole entry): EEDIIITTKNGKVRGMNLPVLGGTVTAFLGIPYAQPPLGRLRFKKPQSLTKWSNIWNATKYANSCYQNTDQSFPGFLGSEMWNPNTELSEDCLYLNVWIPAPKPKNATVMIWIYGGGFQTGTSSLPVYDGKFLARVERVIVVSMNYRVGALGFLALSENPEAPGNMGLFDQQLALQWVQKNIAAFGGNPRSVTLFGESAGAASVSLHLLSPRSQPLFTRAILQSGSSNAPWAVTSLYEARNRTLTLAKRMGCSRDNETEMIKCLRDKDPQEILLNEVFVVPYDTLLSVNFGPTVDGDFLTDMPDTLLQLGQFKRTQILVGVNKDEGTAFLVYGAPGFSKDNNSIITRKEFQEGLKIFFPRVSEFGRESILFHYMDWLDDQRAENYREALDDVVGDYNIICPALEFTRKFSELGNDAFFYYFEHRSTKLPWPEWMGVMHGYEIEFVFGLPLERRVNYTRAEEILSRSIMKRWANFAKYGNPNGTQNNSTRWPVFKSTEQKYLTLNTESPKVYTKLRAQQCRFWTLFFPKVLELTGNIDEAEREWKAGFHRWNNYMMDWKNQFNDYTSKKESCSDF
- PROCEDURE_SUMMARY: In vitro inhibition of eqBuChE (Ellman method)
- Assay type: biochemical, equine
- APPLIED_CONDITIONS: read-out: eqBuChE Inhibition (%)
The figure you give is taken to be in %; do not add the unit.

Given O=c1ccc2ccc(OCCCCSC(=S)N3CCOCC3)cc2[nH]1 [4l] , state its recorded inhibition at 10 µM.
30.5

What do you get for O=c1ccc2ccc(OCCCCCSC(=S)N3CCCCC3)cc2[nH]1 [4d] ?
20.9

What do you get for O=c1ccc2ccc(OCCCCCCSC(=S)N3CCCCC3)cc2[nH]1 [4e] ?
17.5

What do you get for CN1CCN(C(=S)SCCCCOc2ccc3ccc(=O)[nH]c3c2)CC1 [4k] ?
28.6

What do you get for O=c1ccc2ccc(OCCCCSC(=S)N3CCC(CO)CC3)cc2[nH]1 [4j] ?
23.9

What do you get for O=c1ccc2ccc(OCCSC(=S)N3CCCCC3)cc2[nH]1 [4a] ?
16.7

What do you get for Cc1cc(=O)[nH]c2cc(OCCCCSC(=S)N3CCCCC3)ccc12 [9a] ?
18.3

What do you get for O=c1ccc2ccc(OCCCCSC(=S)N3CCC(O)CC3)cc2[nH]1 [4i] ?
15.8

What do you get for O=c1ccc2ccc(OCCCCSC(=S)N3CCCC3)cc2[nH]1 [4m] ?
7.63

What do you get for Cc1c(C)c2ccc(OCCCCSC(=S)N3CCCCC3)cc2[nH]c1=O [9b] ?
21.2

What do you get for CC(C)C1CCN(C(=S)SCCCCOc2ccc3ccc(=O)[nH]c3c2)CC1 [4g] ?
31.4

What do you get for O=c1ccc2ccc(OCCCCSC(=S)N3CCCCC3)cc2[nH]1 [4c] ?
45.4

What do you get for CC1CCN(C(=S)SCCCCOc2ccc3ccc(=O)[nH]c3c2)CC1 [4f] ?
37.2

What do you get for O=c1ccc2ccc(OCCCSC(=S)N3CCCCC3)cc2[nH]1 [4b] ?
16.6

---

Would you mind telling me the reported inhibition at 100 µM of each entry?
- SYSTEM: AChE-induced Aβ1-42 aggregation (Electrophorus electricus, UniProt O42275)
- Construct: eeAChE (from electric eel); purchased eeAChE: Sigma-Aldrich (St. Louis, MO, USA); Aβ1-42: Royobiotech Co., Ltd (Shanghai, China)
- PROCEDURE_SUMMARY: Inhibition of AChE-induced Aβ1-42 aggregation (ThT assay)
- Format: biochemical
- APPLIED_CONDITIONS: inhibitor 100 μM; thioflavin-T fluorescence
The figure you give is taken to be in %; do not add the unit.

Given `Cc1c(C)c2ccc(OCCCCSC(=S)N3CCCCC3)cc2[nH]c1=O` , state its recorded inhibition at 100 µM.
24.4

What do you get for `Cc1cc(=O)[nH]c2cc(OCCCCSC(=S)N3CCCCC3)ccc12` ?
14.2

What do you get for `CC1CCN(C(=S)SCCCCOc2ccc3ccc(=O)[nH]c3c2)CC1` ?
12.1

What do you get for `O=c1ccc2ccc(OCCCCSC(=S)N3CCCCC3)cc2[nH]1` ?
29

What do you get for `O=c1ccc2ccc(OCCCCCSC(=S)N3CCCCC3)cc2[nH]1` ?
24.1

What do you get for `O=c1ccc2ccc(OCCCCCCSC(=S)N3CCCCC3)cc2[nH]1` ?
20.3

---

Would you mind telling me the reported Papp at 18 h, 25 μg/mL of each entry?
- PROCEDURE_SUMMARY: in vitro
- APPLIED_CONDITIONS: PAMPA

Given CN1CCN(C(=S)SCCCCOc2ccc3ccc(=O)[nH]c3c2)CC1 [4k] , state its recorded Papp at 18 h, 25 μg/mL.
4.54 ×10⁻⁶ cm/s

What do you get for O=c1ccc2ccc(OCCCSC(=S)N3CCCCC3)cc2[nH]1 [4b] ?
8.78 ×10⁻⁶ cm/s

What do you get for Cc1cc(=O)[nH]c2cc(OCCCCSC(=S)N3CCCCC3)ccc12 [9a] ?
8.79 ×10⁻⁶ cm/s

What do you get for O=c1ccc2ccc(OCCCCSC(=S)N3CCOCC3)cc2[nH]1 [4l] ?
7.35 ×10⁻⁶ cm/s

What do you get for O=c1ccc2ccc(OCCCCSC(=S)N3CCCCC3)cc2[nH]1 [4c] ?
8.91 ×10⁻⁶ cm/s

---

- SYSTEM: eeAChE (Electrophorus electricus)
- Construct: eeAChE (from electric eel); purchased Sigma-Aldrich (St. Louis, MO, USA); host or cells: electric eel
- Sequence (O42275 24-633): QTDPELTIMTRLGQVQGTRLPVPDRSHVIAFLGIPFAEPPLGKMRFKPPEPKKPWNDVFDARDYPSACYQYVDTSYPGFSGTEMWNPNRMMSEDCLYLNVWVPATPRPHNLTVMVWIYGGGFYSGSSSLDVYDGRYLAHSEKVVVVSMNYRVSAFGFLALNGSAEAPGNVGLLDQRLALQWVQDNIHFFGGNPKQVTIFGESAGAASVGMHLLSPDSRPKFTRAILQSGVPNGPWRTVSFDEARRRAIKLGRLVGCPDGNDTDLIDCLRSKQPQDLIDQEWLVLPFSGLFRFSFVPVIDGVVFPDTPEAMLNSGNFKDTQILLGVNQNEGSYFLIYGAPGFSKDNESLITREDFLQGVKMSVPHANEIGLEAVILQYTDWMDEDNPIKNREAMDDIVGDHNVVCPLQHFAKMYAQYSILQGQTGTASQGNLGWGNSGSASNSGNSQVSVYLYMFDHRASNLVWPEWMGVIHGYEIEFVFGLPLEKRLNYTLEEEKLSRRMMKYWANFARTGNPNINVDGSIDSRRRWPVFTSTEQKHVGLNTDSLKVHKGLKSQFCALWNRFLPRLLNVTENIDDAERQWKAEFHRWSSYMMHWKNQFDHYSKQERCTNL
- PROCEDURE_SUMMARY: In vitro inhibition of eeAChE (Ellman method)
- Type: biochemical, electric eel
- APPLIED_CONDITIONS: read-out: eeAChE Inhibition (%), inhibitor at 10 μM; means ± SD of three experiments
Kindly return class 1 if reported inhibition at 10 µM is no lower than 20%; return class 0 if it is lower.

Check the entry O=c1ccc2ccc(OCCSC(=S)N3CCCCC3)cc2[nH]1 [4a] : does inhibition at 10 µM equal or exceed 20%?
class 1

What do you get for O=c1ccc2ccc(OCCCCSC(=S)N3CCOCC3)cc2[nH]1 [4l] ?
class 0

What do you get for O=c1ccc2ccc(OCCCCSC(=S)N3CCC(CO)CC3)cc2[nH]1 [4j] ?
class 0

What do you get for CN1CCN(C(=S)SCCCCOc2ccc3ccc(=O)[nH]c3c2)CC1 [4k] ?
class 1

---

- SYSTEM: hAChE (Homo sapiens, UniProt P22303)
- Sequence (P22303 32-617 isoform P22303-2 limits assumed): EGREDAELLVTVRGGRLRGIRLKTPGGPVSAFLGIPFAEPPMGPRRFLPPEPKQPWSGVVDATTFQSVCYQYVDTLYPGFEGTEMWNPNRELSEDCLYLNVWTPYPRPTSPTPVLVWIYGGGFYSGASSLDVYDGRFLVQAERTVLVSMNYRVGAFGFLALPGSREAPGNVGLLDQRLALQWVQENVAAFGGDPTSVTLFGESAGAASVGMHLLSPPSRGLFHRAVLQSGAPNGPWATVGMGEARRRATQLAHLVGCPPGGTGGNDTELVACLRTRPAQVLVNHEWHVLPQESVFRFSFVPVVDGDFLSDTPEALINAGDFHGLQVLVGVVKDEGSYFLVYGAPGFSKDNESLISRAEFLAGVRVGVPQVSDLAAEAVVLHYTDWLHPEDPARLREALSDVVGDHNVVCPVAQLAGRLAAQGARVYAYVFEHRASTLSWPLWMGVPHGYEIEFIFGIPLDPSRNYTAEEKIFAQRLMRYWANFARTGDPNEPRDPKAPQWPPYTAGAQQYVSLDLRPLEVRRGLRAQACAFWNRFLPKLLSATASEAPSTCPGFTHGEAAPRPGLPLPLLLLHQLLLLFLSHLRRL
QUANTITY_KIND: pIC50
# reply with the number alone; pIC50 is -log10 of concentration in mol/L

Given `Cc1c(C)c2ccc(OCCCCSC(=S)N3CCCCC3)cc2[nH]c1=O` , state its recorded pIC50.
6.41

What do you get for `O=c1ccc2ccc(OCCCCSC(=S)N3CCCCC3)cc2[nH]1` ?
6.80

What do you get for `O=c1ccc2ccc(OCCCCCSC(=S)N3CCCCC3)cc2[nH]1` ?
6.24

What do you get for `CC1CCN(C(=S)SCCCCOc2ccc3ccc(=O)[nH]c3c2)CC1` ?
5.92

What do you get for `O=c1ccc2ccc(OCCCCCCSC(=S)N3CCCCC3)cc2[nH]1` ?
6.42

What do you get for `Cc1cc(=O)[nH]c2cc(OCCCCSC(=S)N3CCCCC3)ccc12` ?
6.12

---

- SYSTEM: self-induced Aβ1-42 aggregation (Homo sapiens)
- Construct: Aβ1-42 was obtained from Royobiotech Co., Ltd (Shanghai, China); purchased Royobiotech Co., Ltd (Shanghai, China)
- Sequence (P05067 672-713): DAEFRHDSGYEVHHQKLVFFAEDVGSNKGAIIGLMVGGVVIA
- PROCEDURE_SUMMARY: Inhibition of self-induced Aβ1-42 aggregation (ThT assay)
- Format: biochemical
- APPLIED_CONDITIONS: read-out: Inhibition of Aβ1–42 aggregation (%) Self-induced
QUANTITY_KIND: inhibition at 25 µM (%)
The figure you give is taken to be in %; do not add the unit.

I'm curious: which inhibition at 25 µM was measured for O=c1ccc2ccc(OCCCCCCSC(=S)N3CCCCC3)cc2[nH]1 [4e] tested on self-induced Aβ1-42 aggregation (Homo sapiens)?
25.8

What do you get for O=c1ccc2ccc(OCCCCCSC(=S)N3CCCCC3)cc2[nH]1 [4d] ?
26

What do you get for Cc1c(C)c2ccc(OCCCCSC(=S)N3CCCCC3)cc2[nH]c1=O [9b] ?
35.3

What do you get for CC1CCN(C(=S)SCCCCOc2ccc3ccc(=O)[nH]c3c2)CC1 [4f] ?
20.4

What do you get for Cc1cc(=O)[nH]c2cc(OCCCCSC(=S)N3CCCCC3)ccc12 [9a] ?
33.4

What do you get for O=c1ccc2ccc(OCCCCSC(=S)N3CCCCC3)cc2[nH]1 [4c] ?
30.7
